# Tested on: OVCAR-5 complex spheroid (HUVEC/MSC), viability % T/C
# RUN_DESCRIPTION: Anticancer human tumor OVCAR-5 cell line growth inhibition [Asc];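 further: spheroids exposed to agents for 7 days before readout; 100% = DMSO vehicle-treated wells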
# MEASUREMENT_CONDITIONS: second compound 1 µM; first compound 0.0949 µM; stronger effect = lower value
QUANTITY_KIND: viability, T/C

1) CCN1C(C(=O)NC23CCC(C(=O)O)(CC2)CC3)C(c2cccc(Cl)c2F)C2(C(=O)Nc3cc(Cl)ccc32)C12CCCCC2 (centres undefined) + Cc1c(S(C)(=O)=O)c(-c2cc(F)cc(N3CCN(c4ccc(NS(=O)(=O)c5ccc(NC(CCN6CCC(C(=O)OCCCP(=O)(O)O)CC6)CSc6ccccc6)c(S(=O)(=O)C(F)(F)F)c5)cc4)CC3)c2)c(-c2ccc(Cl)cc2)n1C(C)C: 88.5%
2) Cc1nc(N2CCC3(CC2)COC(C)C3N)c(CO)nc1Sc1ccnc(N)c1Cl (centres undefined) + Cc1c(S(C)(=O)=O)c(-c2cc(F)cc(N3CCN(c4ccc(NS(=O)(=O)c5ccc(NC(CCN6CCC(C(=O)OCCCP(=O)(O)O)CC6)CSc6ccccc6)c(S(=O)(=O)C(F)(F)F)c5)cc4)CC3)c2)c(-c2ccc(Cl)cc2)n1C(C)C: 72.4%
3) NC(=O)C(=Cn1cnc(-c2cc(C(F)(F)F)cc(C(F)(F)F)c2)n1)c1cncnc1 + Cc1c(S(C)(=O)=O)c(-c2cc(F)cc(N3CCN(c4ccc(NS(=O)(=O)c5ccc(NC(CCN6CCC(C(=O)OCCCP(=O)(O)O)CC6)CSc6ccccc6)c(S(=O)(=O)C(F)(F)F)c5)cc4)CC3)c2)c(-c2ccc(Cl)cc2)n1C(C)C: 53.1%
4) Cc1nc(N2CCC3(CC2)COC(C)C3N)c(CO)nc1Sc1ccnc(N)c1Cl (centres undefined) + CNC(C)C(=O)NC1CN(S(=O)(=O)c2cccc(S(=O)(=O)N3CCC4CCC(C(=O)NC(c5ccccc5)c5ccccc5)N4C(=O)C(NC(=O)C(C)NC)C3)c2)CCC2CCC(C(=O)NC(c3ccccc3)c3ccccc3)N2C1=O: 71.7%
